Test system: Wolbachia pipientis
Test: Anti-Wolbachia Cell-Based Screen
Assay type: functional
Parameters: scale not given: in the data most compounds retested in dose-response had high values
Settings: 5 µM
Hit rate of the full screen: of about 48,000 compounds, about 13,000 (27%) showed an effect of 50% or more. The list shows a part of the results.
value_type: Percent Effect (%)

> print(dat)
                                    compound  quantitative.readout
 1  Cc1cc(C2CCCN(Cc3cccnc3)C2)n[nH]1 (stereo not given)                -3.647
 2        Cc1ccc(C(=O)N2CCc3ncnc(C)c3CC2)cn1                 -9.03
 3  Cc1ccc(C(=O)N2CCc3ncnc(-c4cnn(C)c4)c3CC2)cn1.O=C(O)C(F)(F)F                   114
 4  O=C(O)C(F)(F)F.O=C1CC[C@]2(CC[C@@H](NC3CCOCC3)CC2)N1Cc1ccccc1                -21.38
 5  CN1C(=O)CC[C@]12CC[C@@H](NC(=O)NCc1cccnc1)CC2.O=C(O)C(F)(F)F                 120.2
 6  O=C(O)C(F)(F)F.O=C(c1cccnc1)N1CCc2ncnc(N3CCOCC3)c2CC1                 3.769
 7  Cc1oncc1C(=O)N1CCc2ncnc(-c3cnn(C)c3)c2CC1.O=C(O)C(F)(F)F                 102.6
 8  Cn1cc(CN2CCC(c3cc(COc4ccc(Cl)cc4)[nH]n3)C2)cn1 (stereo not given)                 120.4
 9  Cc1n[nH]c(C2CN(CCCOc3cccc(Cl)c3)CCO2)n1 (stereo not given)                 17.53
10  O=C(NCc1cccnc1)N[C@H]1CC[C@@]2(CCC(=O)N2CC2CC2)CC1.O=C(O)C(F)(F)F                 109.8

====

Test system: Wolbachia pipientis
Test: Anti-Wolbachia Cell-Based Screen
Format: functional
Parameters: scale not given: in the data most compounds retested in dose-response had high values
Settings: 5 µM
Hit rate of the full screen: of about 48,000 compounds, about 13,000 (27%) showed an effect of 50% or more. The list shows a part of the results.
value_type: Percent Effect (%)

> print(dat)
                                    molecule      value.type  uom  quantitative.readout
 1  Cc1ccc(C(=O)Nc2cc(C(N)=O)ccc2CN(C)C)cc1Cl  Percent Effect    %                -14.19
 2     Cc1cc(NC(=O)Cn2cnc(-c3cccs3)cc2=O)no1  Percent Effect    %                 10.41
 3  O=C(c1ccc(S(=O)(=O)NCC(F)F)cc1)N1CC[C@H]2CNC[C@H]21  Percent Effect    %                -11.61
 4  COc1ccc(CNC2CCc3ncnn3C2)cc1OCCCC#N (stereo not drawn)  Percent Effect    %                 100.9
 5      O=C(NCc1ccccc1F)Nc1ccn(CCN2CCOCC2)n1  Percent Effect    %                -47.91
 6  CNC(=O)COc1ccccc1CNC1CCc2ncnn2C1 (stereo not drawn)  Percent Effect    %                -1.235
 7  Cc1nc(CO[C@H]2CN(C(=O)c3cccn3C)[C@@H]3COC[C@H]23)cs1.O=C(O)C(F)(F)F  Percent Effect    %                 -15.2
 8  Cc1c(CNCC(C)Oc2cccnc2)c2ccccc2n1CC(N)=O (stereo not drawn)  Percent Effect    %                 60.46
 9         COc1cccc(CN(C)Cc2ccc(C#N)cc2)c1OC  Percent Effect    %                -1.171
10  COCCOc1ccc(CNC2CCc3ncnn3C2)cc1OC (stereo not drawn)  Percent Effect    %              100.1999
11  c1ccc(OC2CCCC2)c(CNC2CCc3ncnn3C2)c1 (stereo not drawn)  Percent Effect    %                  12.7
12  CC(C)NC(=O)N1C[C@H](OCc2cccnc2)[C@H]2COC[C@H]21.O=C(O)C(F)(F)F  Percent Effect    %                 112.7
13  COc1ncccc1C(=O)NCC(C)Oc1cccnc1 (stereo not drawn)  Percent Effect    %                -11.32
